Sourced from the RNAGym collection of RNA variant scans (doi:10.1126/science.aae0568)

Below, each entry is listed alongside its reported yeast fitness.
B1: tRNA (parent)
chain: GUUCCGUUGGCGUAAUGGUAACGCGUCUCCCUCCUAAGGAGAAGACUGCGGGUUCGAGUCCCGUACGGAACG

Variants of: B1
Assay: yeast fitness relative to wild type (ratio to wild type); higher = fitter; tRNA-Arg(CCU), competitive growth, 37 C, YPD
Fewer inactive variants are shown than the library holds.

Consider the worked cases shown below.
GUUCCGUUGGCGUAAUGGUAACGCGUCUCCCUCCUAAAGAGAAGACUGCGGGUUAGAGUCCCGUACGAAACG [G38A C55A G68A]
≤ 0.5
GUUCUGUUGGCGUAAUGGUAACGCGUCUUCCUCGUAAGGAGAAGACUGCGGGUUCGAGUCCCGUACGGAACG [C5U C29U C34G]
≤ 0.5
GUUCCGUUGGCGUAUUGGUAACGCGUCUCCCGCCUAAGGAGAAAACUGCAGGUACGAGUCCCGUACGGAACG [A15U U32G G44A G50A U54A]
≤ 0.5
GUUCCGUUGGCGUUAUGGUAACGCGUCUUCCUCCUAUGGAGAAGACUGCAGGUUCGAGUCCCGUACGGAACG [A14U C29U A37U G50A]
≤ 0.5
GUUCCGUUGGCAUAAUGGUAGCGCGUCUCCCUCCUAAGGUGAAGACUGCGGGUUCGAGUCCCGUACUGAACG [G12A A21G A40U G67U]
≤ 0.5

[Q] So what does the record say about yeast fitness for GUUCCGUUGGCGUAAUCGUAACGCGUCUGCCUCCUAAGGAGAGGACUGCGGGUUCGAGUCCCGUACGGAACG [G17C C29G A43G] ?
[A] ≤ 0.5

[Q] So what does the record say about yeast fitness for GUUCCGUUGGCCUAAUGGUAACGCGUCUCCCUCCUAAGGUGAAGACUCCGGGUUCGAGUCCCAUACGGAACG [G12C A40U G48C G63A] ?
[A] ≤ 0.5

[Q] So what does the record say about yeast fitness for GUUGCCUUGGCGUAAUGGUAACGCGUCUCCCUCGUAAGGAGGAGAGUGCGGGUUCGAGUCCCGUACGGAACG [C4G G6C C34G A42G C46G] ?
[A] ≤ 0.5

[Q] So what does the record say about yeast fitness for GUUCCAUUGGCGUAAUGGUGACGCGUCUCCCUCCUGAGGAGAAGACUGGGGGUUCGAGUCCCGUACGGAACG [G6A A20G A36G C49G] ?
[A] ≤ 0.5

[Q] So what does the record say about yeast fitness for GUUCCGUUGGCGUCAUGGUAACGCGUCUCCCGCCUAAGGAGAAGACCGCGGGUUGGAGUCCCGUACGGAACG [A14C U32G U47C C55G] ?
[A] ≤ 0.5
